Test system: Plasmodium berghei
Test: Screen against P. berghei liver stage (PbLuc), transformed with Luciferase, at 10uM
Assay type: functional, HepG2
Details: tested at 10 uM
Among all 69,000 compounds or so, about 8,600 (12%) showed an effect of 50% or more. Shown is part of a subset that was picked to be rich in strong results.
Observable: INHIBITION

A selection of reference data follows.
Cc1cnc(NC(=O)CSC2CCc3ccccc3NC2=O)s1 (configuration not stated)
54.6%
CCOCc1ccc(CNc2cncc(-n3cccn3)n2)cc1
80.6%
COc1ccccc1NC(=O)CSC1CCc2ccccc2NC1=O (configuration not stated)
10.8%
CC(=O)N1C[C@H]2CC[C@@H](C1)N(Cc1ccc(Cn3cccn3)cc1)C2
4.59%
COc1ccc(CC(C)(O)CNC(=O)Cc2ccc(F)cc2)cc1 (configuration not stated)
77.6%
CCOc1cccc(CNc2cncc(-n3cccn3)n2)c1
31.6%
COCc1ccc(CNc2cncc(-n3cccn3)n2)cc1
-21.9%
Cc1nn(-c2cc(Cl)cc(Cl)c2)c(C)c1CCC(=O)O
46.1%

Could you tell me INHIBITION for each of these compounds? They are listed below.
1. COc1ccc(CC(C)(O)CNC(=O)c2cccs2)cc1 (configuration not stated)
2. CNC(=O)COc1ccc(CNc2cncc(-n3cccn3)n2)cc1
3. CCC1CCCCN1C(=O)Cn1cnc(C#N)n1 (configuration not stated)
4. N#Cc1ncn(CC(=O)N2CCCC2c2cccs2)n1 (configuration not stated)

1. -18%
2. 23.4%
3. 47.9%
4. 23.3%
